Tested on: Saccharomyces cerevisiae BY4741 SeMeCo community
Test: z-score of subpopulation abundance vs DMSO median, subpopulation auxotrophic for UM; higher = larger share of this subpopulation than in DMSO controls
Details: 10 µM; 24 h; SM minimal medium; subpopulation (auxotrophy): UM
Structures can show the parent of a compound that is named as a salt.
Assay readout: z-score of subpopulation abundance

Request: Which z-score of subpopulation abundance value is on record for "Oc1c(Cl)cc(Cl)cc1Sc1cc(Cl)cc(Cl)c1O" ?
Result: -0.68

Request: Which z-score of subpopulation abundance value is on record for C#CCN[C@@H]1CCc2ccccc21 [Rasagiline] ?
Result: 0.58

Request: Which z-score of subpopulation abundance value is on record for "C/C(=C\C(=O)OCCCCCCCCC(=O)O)C[C@@H]1OC[C@H](C[C@@H]2O[C@H]2[C@@H](C)[C@H](C)O)[C@@H](O)[C@H]1O" ?
Result: 1.73

Request: Which z-score of subpopulation abundance value is on record for CCn1cc(C(=O)O)c(=O)c2cc(F)c(N3CCN(C)CC3)cc21 [Pefloxacin Mesylate Dihydrate] ?
Result: 0.05

// next entry
Request: Which z-score of subpopulation abundance value is on record for c1cnc2cc3c(cc2n1)[C@@H]1CNC[C@H]3C1 [Varenicline Tartrate] ?
Result: -0.54

----------
Tested on: Saccharomyces cerevisiae BY4741 SeMeCo community
Experiment: z-score of subpopulation abundance vs DMSO median, subpopulation auxotrophic for LUM; higher = larger share of this subpopulation than in DMSO controls
Conditions: 10 µM; 24 h; SM minimal medium; subpopulation (auxotrophy): LUM
Reported z-score of subpopulation abundance by item:
Field format: numeric only.

Solved cases (3 shown):
Request: Which z-score of subpopulation abundance value is on record for O=C(Nc1cccc(C2=NCCN2)c1)Nc1cccc(C2=NCCN2)c1 [Imidocarb dipropionate] ?
Result: -0.67

Request: Which z-score of subpopulation abundance value is on record for "Cc1ccc2c(Cl)cc(Cl)c(O)c2n1" ?
Result: 16.2

Request: Which z-score of subpopulation abundance value is on record for NS(=O)(=O)Cc1noc2ccccc12 [Zonisamide] ?
Result: 1.7

New cases:
Request: Which z-score of subpopulation abundance value is on record for COc1ccc(C2CNC(=O)C2)cc1OC1CCCC1 (stereo not drawn) [S- (+)-Rolipram] ?
Result: -1.24

----------
System: Saccharomyces cerevisiae BY4741 SeMeCo community
Assay: z-score of subpopulation abundance vs DMSO median, subpopulation auxotrophic for U; higher = larger share of this subpopulation than in DMSO controls
Settings: 10 µM; 24 h; SM minimal medium; subpopulation (auxotrophy): U
Counter-ions that a name gives are not always drawn.
Reported z-score of subpopulation abundance by item:
Field format: numeric only.

Request: Which z-score of subpopulation abundance value is on record for "O=C(O)c1cccnc1Nc1cccc(C(F)(F)F)c1" ?
Result: 0.51

Request: Which z-score of subpopulation abundance value is on record for C=C[C@H]1CN2CC[C@H]1C[C@H]2[C@H](O)c1ccnc2ccc(OC)cc12 [Quinine HCl Dihydrate] ?
Result: 0.16

Request: Which z-score of subpopulation abundance value is on record for NC1CCN(c2nc3c(cc2F)c(=O)c(C(=O)O)cn3-c2ccc(F)cc2F)C1 (stereo not drawn) [Tosufloxacin p-Toluenesulfonate Hydrate] ?
Result: -0.39

Request: Which z-score of subpopulation abundance value is on record for "CC(C)NNC(=O)c1ccncc1" ?
Result: 1.2

Request: Which z-score of subpopulation abundance value is on record for "CN1C(C(=O)Nc2ccccn2)=C(O)c2sc(Cl)cc2S1(=O)=O" ?
Result: 0.67

New cases:
Request: Which z-score of subpopulation abundance value is on record for Cc1ccccc1C(OCCN(C)C)c1ccccc1 (stereo not drawn) [Orphenadrine Citrate] ?
Result: 0.9

Request: Which z-score of subpopulation abundance value is on record for "CO[C@H]1O[C@@H]2O[C@@]3(C)CC[C@H]4[C@H](C)CC[C@@H]([C@H]1C)[C@@]24OO3" ?
Result: 0.63

Request: Which z-score of subpopulation abundance value is on record for "CC(C)C(=O)c1c(C(C)C)nn2ccccc12" ?
Result: 1.05

Request: Which z-score of subpopulation abundance value is on record for CN1C[C@@H]2C[C@H]1CN2c1cc2c(cc1F)c(=O)c(C(=O)O)cn2C1CC1 [Danofloxacin Mesylate] ?
Result: 0.06

Request: Which z-score of subpopulation abundance value is on record for "C[C@@H]1CC(=O)NN=C1c1ccc(NN=C(C#N)C#N)cc1" ?
Result: 0.92

Request: Which z-score of subpopulation abundance value is on record for "C[C@]12CC[C@@H]3c4ccc(O)cc4CC[C@H]3[C@@H]1C[C@@H](O)[C@@H]2O" ?
Result: -0.19

Request: Which z-score of subpopulation abundance value is on record for "O=c1[nH]c(=O)n([C@H]2C[C@H](O)[C@@H](CO)O2)cc1/C=C/Br" ?
Result: 0.12

----------
Test system: Saccharomyces cerevisiae BY4741 SeMeCo community
Test: z-score of subpopulation abundance vs DMSO median, subpopulation auxotrophic for HLU; higher = larger share of this subpopulation than in DMSO controls
Conditions: 10 µM; 24 h; SM minimal medium; subpopulation (auxotrophy): HLU
Where a name gives a salt, the structure may show the parent alone.
// map z-score of subpopulation abundance to label using low range = under -0.4, mid range = from -0.4 up to 0.5, high range = 0.5 and over

Field: example entries. Status: answers known.
Request: Sort Cc1ccc(C(=O)C(C)CN2CCCCC2)cc1 (stereo not given) [Tolperisone HCl] into one of the categories.
Result: low range

Request: Sort Cc1ccc(O)c([C@H](CCN(C(C)C)C(C)C)c2ccccc2)c1 [Tolterodine tartrate] into one of the categories.
Result: mid range

Request: Sort "O=c1[nH]cc(F)c(=O)[nH]1" into one of the categories.
Result: high range

Request: Sort "CCn1cc(C(=O)O)c(=O)c2cnc(N3CCNCC3)nc21" into one of the categories.
Result: low range

Request: Sort COC(=O)C1=C(C)NC(C)=C(C(=O)OCCN(C)Cc2ccccc2)C1c1cccc([N+](=O)[O-])c1 (stereo not given) [Nicardipine HCl] into one of the categories.
Result: mid range

Request: Sort CN(Cc1cnc2nc(N)nc(N)c2n1)c1ccc(C(=O)N[C@@H](CCC(=O)O)C(=O)O)cc1 [Methotrexate disodium] into one of the categories.
Result: high range

New cases:
Request: Sort CN(C)CCC=C1c2ccccc2C=Cc2ccccc21 [Cyclobenzaprine HCl] into one of the categories.
Result: low range

Request: Sort CN1CCN(CCCN2c3ccccc3Sc3ccc(C(F)(F)F)cc32)CC1 [Trifluoperazine 2HCl] into one of the categories.
Result: mid range

Request: Sort O=C1C(CC[S+]([O-])c2ccccc2)C(=O)N(c2ccccc2)N1c1ccccc1 (racemic) [(+/-)-Sulfinpyrazone] into one of the categories.
Result: high range

Request: Sort CN[C@@H]1[C@@H](O[C@H]2O[C@H](CO)[C@@H](N)[C@H](O)[C@H]2O)OC2C[C@@H](N)[C@@H](O[C@H]3[C@H](O)[C@@H](O)[C@H](N)C[C@@H]3N)OC2[C@@H]1O (stereo not given in full) [Apramycin Sulfate] into one of the categories.
Result: mid range

Request: Sort "N#Cc1ccc(Oc2ccc3c(c2)COB3O)cc1" into one of the categories.
Result: high range

Request: Sort "O=C(Cn1cnnn1)N[C@@H]1C(=O)N2C(C(=O)O)=C(CSc3nncs3)CS[C@H]12" into one of the categories.
Result: mid range

----------
Reported z-score of subpopulation abundance by item:
Test system: Saccharomyces cerevisiae BY4741 SeMeCo community
Experiment: z-score of subpopulation abundance vs DMSO median, subpopulation auxotrophic for LUM; higher = larger share of this subpopulation than in DMSO controls
Details: 10 µM; 24 h; SM minimal medium; subpopulation (auxotrophy): LUM
Structures can show the parent of a compound that is named as a salt.
Field format: numeric only.

Solved cases (5 shown):
Request: Which z-score of subpopulation abundance value is on record for N#C/C(=C1/SC[C@@H](c2ccc(Cl)cc2Cl)S1)n1ccnc1 [Luliconazole] ?
Result: 4.52

Request: Which z-score of subpopulation abundance value is on record for OCCOCCN1CCN(C2=Nc3ccccc3Sc3ccccc32)CC1 [Quetiapine Fumarate] ?
Result: 0.86

Request: Which z-score of subpopulation abundance value is on record for O=C(O)CCC(=O)OC[C@@H](NC(=O)C(Cl)Cl)[C@H](O)c1ccc([N+](=O)[O-])cc1 [Chloramphenicol sodium succinate] ?
Result: 1.21

Request: Which z-score of subpopulation abundance value is on record for CN[C@@H]1[C@H](O[C@H]2[C@H](O[C@H]3[C@H](O)[C@@H](O)[C@H](NC(=N)N)[C@@H](O)[C@@H]3NC(=N)N)O[C@@H](C)[C@]2(O)CO)O[C@@H](CO)[C@H](O)[C@H]1O [Dihydrostreptomycin sulfate] ?
Result: -0.71

Request: Which z-score of subpopulation abundance value is on record for CC(=O)[C@@]1(O)CC[C@H]2[C@@H]3C[C@H](C)C4=CC(=O)CC[C@]4(C)[C@H]3CC[C@@]21C [Medroxyprogesterone] ?
Result: 0.93

New cases:
Request: Which z-score of subpopulation abundance value is on record for C=CCCCCCCCCC(=O)[O-].C=CCCCCCCCCC(=O)[O-].[Zn+2] [Zinc Undecylenate] ?
Result: -0.54

Request: Which z-score of subpopulation abundance value is on record for O=C1CN(/N=C/c2ccc([N+](=O)[O-])o2)C(=O)N1 [Nitrofurantoin] ?
Result: -0.21
